- ASSAY NOTES: NCI Yeast Anticancer Drug Screen. Data for the mlh1 rad18 strain (AID 175)
- RECORDED CONDITIONS: S. cerevisiae mlh1 rad18 strain growth inhibition; at 50.0 µM (retest, dose inferred, filed as 5.0)
The panel holds about 79,000 compounds, 15% with a hit somewhere; the sample as a whole holds those more often. Active and inactive are the calls of the source. No stated cut-off is given here; in the data, active means growth inhibition above about 70%; inactive means the rest.
In this exercise, the only acceptable responses are active, inactive

Record excerpt, results attached:
# COMPOUND, CLASS NAME
rows = [
    ("CSC(=S)N/N=C(/C)CC(C)C", "active"),
    ("CC(=O)Nc1c(Cl)ccc2c1Cc1cc([N+](=O)[O-])ccc1-2", "inactive"),
    ("O=C([O-])C[n+]1c(/C=C/c2ccccc2)ccc2ccccc21", "active"),
    ("NC(=Nc1cc2ccccc2c2ccccc12)Nc1cc2ccccc2c2ccccc12", "active"),
    ("CC(=O)Nc1ccc(C(=O)C(C)Br)cc1 (configuration not stated)", "active"),
]

*Q* What call does the record list for COc1ccc2c(c1)nc1ccc(Cl)cc1[n+]2C ?
*A* inactive

*Q* What did this assay record as the result for CSc1cccc(N2C(=O)C=CC2=O)c1 ?
*A* inactive

*Q* Hi, do you know how CCC(C)NCCNc1cc(OC)cc2cccnc12 (configuration not stated) came out in this test?
*A* inactive

*Q* Per the records of this test, what outcome belongs to CN=C1NS(=O)(=O)c2ccccc21 ?
*A* inactive

*Q* Entry CN(c1ccccc1)c1c2c(oc(=O)c1Cl)-c1ccccc1SC2 : call = ?
*A* active

*Q* Tell me the recorded outcome of this test for Cc1cc(O)c(NCCN(C)C)c2c(=O)c3ccccc3sc12 .
*A* active

*Q* I'd appreciate the recorded outcome for CC(C)(C)c1c2c(c(C(C)(C)C)c3c1OCN(Cc1ccccc1)C3)OCN(Cc1ccccc1)C2 from this test.
*A* inactive

These data points were gathered from PubChem BioAssay (NCI).
